method: Pharmacokinetic analysis in mice
Assay type: in vivo, mouse
conditionLabel: male, C57BL/6NCRL, mouse, 5 mg/kg; Brain; IV 5.0 (mg eq./kg)

[
  {
    "compound": "CN1C(=O)c2nc(Cc3ccc(C(F)(F)F)cc3)[nH]c2N2C1=N[C@H]1CCC[C@H]12 [SCH-51866]",
    "unitSymbol": "µM·h",
    "AUC(0-inf)": 8.23
  }
]

---

method: Pharmacokinetic analysis in mice
Assay type: in vivo, mouse
conditionLabel: male, C57BL/6NCRL, mouse, 5 mg/kg; Plasma; IV 5.0 (mg eq./kg); read-out: Plasma Clearance (CLp) (converted)

[
  {
    "structureString": "CN1C(=O)c2nc(Cc3ccc(C(F)(F)F)cc3)[nH]c2N2C1=N[C@H]1CCC[C@H]12",
    "unitSymbol": "mL/min/kg",
    "clearance": 29.2
  }
]

---

assayedTarget: UniProtKB O76074
pIC50: −log10 of the molar value.
readout: pIC50

[
  {
    "structureString": "CN1C(=O)c2nc(Cc3ccc(C(F)(F)F)cc3)[nH]c2N2C1=N[C@H]1CCC[C@H]12",
    "readout": "pIC50",
    "recordedResult": 5.55
  }
]

---

assayedTarget: PDE2A3 (Homo sapiens, UniProt O00408)
Construct: Scottish Biomedical (contract laboratory)
Sequence (O00408 whole entry, species assumed): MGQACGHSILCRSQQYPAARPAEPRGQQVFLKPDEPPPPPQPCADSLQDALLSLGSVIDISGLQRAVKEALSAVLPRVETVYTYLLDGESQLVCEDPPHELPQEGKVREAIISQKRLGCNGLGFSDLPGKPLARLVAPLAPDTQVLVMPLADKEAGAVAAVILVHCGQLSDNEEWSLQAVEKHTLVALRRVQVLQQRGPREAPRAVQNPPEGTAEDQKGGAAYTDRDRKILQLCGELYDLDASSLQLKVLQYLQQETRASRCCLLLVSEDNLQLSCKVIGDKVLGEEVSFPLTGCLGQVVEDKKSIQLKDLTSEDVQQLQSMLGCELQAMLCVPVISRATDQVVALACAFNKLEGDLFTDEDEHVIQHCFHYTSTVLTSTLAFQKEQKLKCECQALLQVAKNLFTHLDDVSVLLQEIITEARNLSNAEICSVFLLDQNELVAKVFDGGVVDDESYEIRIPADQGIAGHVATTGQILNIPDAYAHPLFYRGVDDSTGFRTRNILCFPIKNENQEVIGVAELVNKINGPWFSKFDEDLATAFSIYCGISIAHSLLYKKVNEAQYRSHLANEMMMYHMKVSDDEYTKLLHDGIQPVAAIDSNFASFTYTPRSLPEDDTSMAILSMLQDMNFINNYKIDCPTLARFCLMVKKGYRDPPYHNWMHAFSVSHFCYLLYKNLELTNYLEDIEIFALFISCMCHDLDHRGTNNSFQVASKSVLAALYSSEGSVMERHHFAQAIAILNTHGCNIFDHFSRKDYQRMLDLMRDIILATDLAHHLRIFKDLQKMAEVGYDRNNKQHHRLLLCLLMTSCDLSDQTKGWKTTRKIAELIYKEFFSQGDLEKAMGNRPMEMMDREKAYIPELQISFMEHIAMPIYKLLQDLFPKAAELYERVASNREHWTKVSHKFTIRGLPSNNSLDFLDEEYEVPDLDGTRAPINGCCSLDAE
method: IMAP PDE activity assay (Scottish Biomedical)
conditionLabel: recombinant PDE2A3
pIC50: −log10 of the molar value.

[
  {
    "structureString": "CN1C(=O)c2nc(Cc3ccc(C(F)(F)F)cc3)[nH]c2N2C1=N[C@H]1CCC[C@H]12",
    "assayedTarget": "PDE2A3 (Homo sapiens, UniProt O00408)",
    "pIC50": 5.88
  }
]

---

method: Pharmacokinetic analysis in mice
Format: in vivo, mouse
conditionLabel: male, C57BL/6NCRL, mouse, brain, oral, 10 mg eq./kg; mice; read-out: Brain-to-plasma concentration ratios
readout: Kp

[
  {
    "structureString": "CN1C(=O)c2nc(Cc3ccc(C(F)(F)F)cc3)[nH]c2N2C1=N[C@H]1CCC[C@H]12",
    "recordedResult": "0.1 to 0.4"
  }
]

---

method: Pharmacokinetic analysis in mice
Format: in vivo, mouse
conditionLabel: male, C57BL/6NCRL, mouse, 5 mg/kg; Plasma; IV 5.0 (mg eq./kg)

[
  {
    "structureString": "CN1C(=O)c2nc(Cc3ccc(C(F)(F)F)cc3)[nH]c2N2C1=N[C@H]1CCC[C@H]12",
    "unitSymbol": "µM·h",
    "AUC(0-inf)": 7.35
  }
]

---

method: Pharmacokinetic analysis in mice
Format: in vivo, mouse
conditionLabel: male, C57BL/6NCRL, mouse, 5 mg/kg; Plasma; IV 5.0 (mg eq./kg); read-out: Mean Residence Time (MRT)

[
  {
    "compound": "CN1C(=O)c2nc(Cc3ccc(C(F)(F)F)cc3)[nH]c2N2C1=N[C@H]1CCC[C@H]12 [SCH-51866]",
    "MRT": "2.57 h"
  }
]

---

assayedTarget: PDE11A1 (cAMP) (Homo sapiens, UniProt Q9HCR9)
Sequence (Q9HCR9 whole entry): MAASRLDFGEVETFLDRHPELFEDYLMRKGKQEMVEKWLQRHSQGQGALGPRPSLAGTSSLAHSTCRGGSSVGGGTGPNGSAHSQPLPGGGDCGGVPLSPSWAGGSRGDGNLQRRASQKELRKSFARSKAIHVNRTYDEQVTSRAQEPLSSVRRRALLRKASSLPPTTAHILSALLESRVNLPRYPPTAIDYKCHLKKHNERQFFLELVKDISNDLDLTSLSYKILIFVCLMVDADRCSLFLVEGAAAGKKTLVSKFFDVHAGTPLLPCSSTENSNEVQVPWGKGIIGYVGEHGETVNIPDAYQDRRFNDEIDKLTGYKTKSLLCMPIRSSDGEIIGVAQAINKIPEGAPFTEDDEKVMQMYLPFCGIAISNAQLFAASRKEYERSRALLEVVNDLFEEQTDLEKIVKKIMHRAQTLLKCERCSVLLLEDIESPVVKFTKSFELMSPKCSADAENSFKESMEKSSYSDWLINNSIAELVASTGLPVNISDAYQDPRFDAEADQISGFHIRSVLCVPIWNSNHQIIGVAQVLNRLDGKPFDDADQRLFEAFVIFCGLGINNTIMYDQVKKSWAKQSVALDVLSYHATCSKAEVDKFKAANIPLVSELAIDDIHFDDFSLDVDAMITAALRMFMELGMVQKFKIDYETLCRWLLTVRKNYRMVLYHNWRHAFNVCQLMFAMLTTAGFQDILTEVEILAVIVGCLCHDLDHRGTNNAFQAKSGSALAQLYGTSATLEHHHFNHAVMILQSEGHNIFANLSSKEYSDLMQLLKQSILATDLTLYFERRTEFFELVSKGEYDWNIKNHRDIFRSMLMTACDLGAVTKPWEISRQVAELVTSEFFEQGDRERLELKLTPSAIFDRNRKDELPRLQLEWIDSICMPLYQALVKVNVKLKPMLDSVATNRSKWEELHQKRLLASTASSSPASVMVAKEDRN

[
  {
    "molecule": "CN1C(=O)c2nc(Cc3ccc(C(F)(F)F)cc3)[nH]c2N2C1=N[C@H]1CCC[C@H]12 [SCH-51866]",
    "IC50": "21.9 µM"
  }
]
